- assayInfo: chemical genetic growth profiling, strain panel (AID 1159580);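 also: tested at 20 µM; growth read once vehicle control cultures reached saturation at 30 °C; lower values mean less growth of the strain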
- assayContext: S. cerevisiae deletion strains, growth OD, locus YHR079C, strain IRE1, hits give low values
Out of some 5,500 compounds screened, about 2,000 (36%) were called active. About 18% were inconclusive and are not listed. This is one part of the list.
# strict inequality: normalized growth < 1 yields TRUE, everything else yields FALSE

Is the reported normalized growth for CC1C/C(=N/Nc2ccc(Br)cc2)c2cc(Cl)ccc2S1(=O)=O (configuration not stated) strictly below 1?
TRUE

Is the reported normalized growth for "CC(=O)N=c1sc(S(N)(=O)=O)nn1C" strictly below 1?
FALSE

Is the reported normalized growth for "CSC(=NNc1ccccc1)NC(=O)c1c(Cl)cccc1Cl" strictly below 1?
TRUE

Is the reported normalized growth for "Cc1onc(-c2ccccc2)c1C(=O)Sc1ccc(C(F)(F)F)cn1" strictly below 1?
TRUE

Is the reported normalized growth for CC(=O)O[C@H]1C[C@@H](OC(C)=O)C(C)(C)C2CC(=O)[C@]3(C)C(CC[C@@]4(C)[C@H](c5ccoc5)OC(=O)[C@H]5O[C@]543)[C@]21C (some centres not stated) strictly below 1?
TRUE

Is the reported normalized growth for "Nc1cc(-c2ccncc2)c[nH]c1=O" strictly below 1?
FALSE

Is the reported normalized growth for CC(=O)OCC(=O)[C@@]1(O)[C@H](OC(C)=O)CC2C3CCC4=CC(=O)C=C[C@]4(C)[C@@]3(F)[C@@H](O)C[C@@]21C (some centres not stated) strictly below 1?
TRUE

Is the reported normalized growth for "Oc1ccc(N=Nc2ccccn2)c(O)c1" strictly below 1?
TRUE

Is the reported normalized growth for "O=C1/C(=C/c2ccc(C(F)(F)F)cc2)COc2ccccc21" strictly below 1?
TRUE

Is the reported normalized growth for "Clc1ccc2c(c1)C(N1CCNCC1)=Nc1ccccc1O2" strictly below 1?
FALSE

Is the reported normalized growth for "N#C/C(=C\c1cccc(O)c1)C(=O)O" strictly below 1?
TRUE

Is the reported normalized growth for CC1C/C(=N/Nc2ccc(Br)cc2)c2cc(Cl)ccc2S1 (configuration not stated) strictly below 1?
TRUE

Is the reported normalized growth for CCSCCC(N)C(=O)O (configuration not stated) strictly below 1?
FALSE

Is the reported normalized growth for "CC(=O)Nc1nnc(S(N)(=O)=O)s1" strictly below 1?
TRUE

Is the reported normalized growth for "O=C(O)CCC(=O)Nc1ccc(S(=O)(=O)Nc2nccs2)cc1" strictly below 1?
FALSE

Is the reported normalized growth for "CCCC(CCC)C(=O)O" strictly below 1?
TRUE

Is the reported normalized growth for "O=S(=O)(Nc1ccc(Oc2ccc(OC(F)(F)F)cc2)cc1)c1cccc(Cl)c1" strictly below 1?
TRUE

Is the reported normalized growth for "Nc1ccncc1" strictly below 1?
TRUE

Is the reported normalized growth for "O=C1CN=C(c2ccccc2Cl)c2cc([N+](=O)[O-])ccc2N1" strictly below 1?
TRUE

Is the reported normalized growth for "C/C(=N/Nc1ccccc1)c1cc(Cl)cc(Cl)c1O" strictly below 1?
TRUE
